- Tested System: Histone deacetylase
- Assay Notes: Inhibition of HDAC in human HeLa cells by fluorescent activity assay
- Assay type: cell-based
Mark each entry 1 if its IC50 sits below 500 nM, and 0 for all others.

Bench note: check whether `O=C(CCCC1CCN(C(=O)Nc2ccccc2)CC1)NO` shows IC50 below 500 nM
1

Report whether reported IC50 is lower than 500 nM (strictly) for `O=C(CCCC1CCN(C(=O)NCc2ccccc2)CC1)NO`
1

For `O=C(CCCC1CCN(C(=O)Cc2ccccc2)CC1)NO` , is the recorded IC50 below the cut-off of 500 nM?
1

Lab note: confirm whether the reported IC50 for this compound is below 500 nM, equality not counting. compound: `O=C(CCCC1CCN(S(=O)(=O)Cc2ccccc2)CC1)NO`
0

IC50 under 500 nM? Item: `O=C(CCCC1CCN(S(=O)(=O)c2ccccc2)CC1)NO`
0

Please check: IC50 for `O=C(CCCC1CCN(C(=O)c2ccccc2)CC1)NO` , strictly under 500 nM or not?
0

Origin of measurements: ChEMBL document CHEMBL1759961
